- Test system: SF-295 CNS
- ASSAY_PROCEDURE: NCI tumour cell line growth inhibition, 48 h; in the data active = GI50 below about 0.43 µM; inactive = the rest
Allowed answers: class 1 for active, class 0 for inactive

chemical_string=Nc1nccc2c1ccn2-c1cccc(NC(=O)c2ccc(N3CCOCC3)c(C(F)(F)F)c2)c1 tested_on="SF-295 CNS" cat="class 1"
chemical_string=O=C(Oc1ccccc1Cl)c1ccccc1Nc1cccc(C(F)(F)F)c1 tested_on="SF-295 CNS" cat="class 0"
chemical_string=COc1ccc(-c2nc(-c3ccccn3)c(-c3ccccn3)n2CC(C)C)cc1OC1CCCC1 tested_on="SF-295 CNS" cat="class 0"
chemical_string=CC(C)C[CH2][Ge]([CH2]CC(C)C)([CH2]CC(C)C)[CH2]CC(C)C tested_on="SF-295 CNS" cat="class 0"

Request: What did the test return for O=C(Cn1c(C(=O)c2ccc(Cl)cc2)nc(-c2ccccc2)c1-c1ccccc1)c1ccc(Cl)cc1 ?
Result: class 0

Request: What did the test return for COc1ccc(-n2cc(-c3cc(OC)c(OC)c(OC)c3)[nH]c2=S)cc1Cl ?
Result: class 0

Request: Outcome logged for COc1ccc2c(c1)C(=O)c1c-2c(N2CCN(C(=O)CNCCN(C)C)CC2)nc2ccccc12 in this assay:
Result: class 0

Request: Hey, what did the test say about O=c1c2c(=NCCN3CCCC3)cc3c(=O)n(CCCN4CCOCC4)c(=O)c4ccc(c(O)n1CCCN1CCOCC1)c2c4-3 ?
Result: class 1
